System: behavioral toxicity
Test: behavioral toxicity, rat
Conditions: rat, po; protective index TD50/ED50
I'd appreciate it if you could supply PI values for the items below.

## Input Which PI reading was recorded for the compound COC[C@@H](NC(C)=O)C(=O)NCc1ccc(OCc2cccc(F)c2)cc1 [(R)-10] ?
## Output >36

## Input Given the compound CC(=O)N[C@H](C)C(=O)NCc1ccc(OCc2cccc(F)c2)cc1 [(R)-6] , what is its reported PI?
## Output >16

## Input Tell me the measured PI of COC[C@@H](NC(C)=O)C(=O)NCc1ccc(COc2cccc(F)c2)cc1 [(R)-16] , please.
## Output >21

## Input Which value of PI has been reported for COC[C@@H](NC(C)=O)C(=O)NCc1ccc(OCc2ccccc2F)cc1 [(R)-21] in the records?
## Output >45

## Input Looking for the measured PI of "CC(=O)NCC(=O)NCc1ccc(OCc2cccc(F)c2)cc1" , can you help?
## Output >16

## Input What measured PI goes with COC[C@@H](NC(C)=O)C(=O)NCc1ccc(OCc2ccc(F)cc2)cc1 [(R)-22] ?
## Output >86
